system: Saccharomyces cerevisiae BY4741 SeMeCo community; experiment: z-score of subpopulation abundance vs DMSO median, subpopulation auxotrophic for HL; higher = larger share of this subpopulation than in DMSO controls; conditions: 10 µM; 24 h; SM minimal medium; subpopulation (auxotrophy): HL
Counter-ions that a name gives are not always drawn.
metric: z-score of subpopulation abundance
Could you keep your reply to the number by itself?

# compound, z-score of subpopulation abundance
data = [
    ("OC(CCN1CCCCC1)(c1ccccc1)C1CCCCC1 (stereo not drawn) [Trihexyphenidyl hydrochloride]", -0.03),
    ("C=C[C@]1(C)C[C@@H](OC(=O)CSC(C)(C)CNC(=O)[C@H](N)C(C)C)[C@]2(C)[C@H](C)CC[C@]3(CCC(=O)[C@H]32)[C@@H](C)[C@@H]1O [Valnemulin HCl]", 0.85),
    ("O=C1NC(=O)C(c2ccccc2)(c2ccccc2)N1", -0.93),
    ("Cc1cc(NS(=O)(=O)c2ccc(N)cc2)no1", 0.5),
    ("COc1cnc(NS(=O)(=O)c2ccc(N)cc2)nc1", -0.38),
]

Summary for this compound, CCc1cc(C(N)=S)ccn1 [Ethionamide] : z-score of subpopulation abundance is -0.03

Please fill in: z-score of subpopulation abundance reported for `NC(=O)C(c1ccccc1)(c1ccccc1)[C@@H]1CCN(CCc2ccc3c(c2)CCO3)C1` = -0.56

# compound O=C(O)c1cn(C2CC2)c2cc(N3CCNCC3)c(F)cc2c1=O [Ciprofloxacin hydrochloride hydrate] ; its z-score of subpopulation abundance = -0.26
